# assay-target: GST-AF6 PDZ domain fusion protein (af-6 protein AA985-1077; PDZ domain 1 of 1) (UniProt P08515 1-218 = GST)
# Sequence (P08515 1-218, tags or fused parts left off): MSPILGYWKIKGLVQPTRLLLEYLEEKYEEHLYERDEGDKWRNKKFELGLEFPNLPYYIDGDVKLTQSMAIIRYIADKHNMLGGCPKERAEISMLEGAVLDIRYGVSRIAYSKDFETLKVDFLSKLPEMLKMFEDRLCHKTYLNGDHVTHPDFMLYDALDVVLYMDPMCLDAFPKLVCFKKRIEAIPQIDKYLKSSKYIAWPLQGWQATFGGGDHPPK
# assay-summary: A/G assays
Ends that are not written are not given here. * marks the point of attachment. Biotin = O=C1N[C@H]2[C@H](CS[C@H]2CCCCC(=O)*)N1
outcome-measure: binding result

# example entries with known answers
> print(dat)
                                     binder  outcome.measure  assay.result
1  Biotin-ENLAPVTTFGKTNGYIA [CD148 (DEP-1) C-terminal PL peptide AA19L (ends GYIA), biotinylated]   binding result    no binding
2  Biotin-DTPSSSYTQSTMDHDLHDAL [CC CKR-4 C-terminal PL peptide AA44L, biotinylated]   binding result    no binding
3  Biotin-TTNNNPNSAVNIKKIFTDV [KV1.3 C-terminal PL peptide AA33L, biotinylated]   binding result    no binding
4  Biotin-KKGTYLTDETHREVKFTSL [CD46 (form 1) C-terminal PL peptide AA10L, biotinylated]   binding result    no binding
5  Biotin-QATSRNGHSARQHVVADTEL [CD34 C-terminal PL peptide AA7L, biotinylated]   binding result    no binding
6  Biotin-SPQPDSTDNDDYDDISAA [CD6 C-terminal PL peptide AA6L, biotinylated]   binding result    no binding

# input binding result for Biotin-QFMTADETRNLQNVDMKIGV [CD44 (long form) C-terminal PL peptide AA9L, biotinylated] ?
# output no binding

# input What do you get for Biotin-SSSQSLESDGSYQKPSYIL [CD62E C-terminal PL peptide AA48L, biotinylated] ?
# output no binding

# input What do you get for Biotin-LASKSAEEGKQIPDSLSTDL [DOCK2 C-terminal PL peptide AA40L, biotinylated] ?
# output no binding

# input What do you get for Biotin-SSKSKSSEESQTFFGLYKL [FasLigand C-terminal PL peptide AA23L-M, biotinylated] ?
# output no binding

# input What do you get for Biotin-EVICYIEKPGVETLEDSVF [CDW125 (IL5R) C-terminal PL peptide AA28L, biotinylated] ?
# output no binding

# input What do you get for Biotin-LERTSSVSPSTAEPELSIVF [CC CKR-3 C-terminal PL peptide AA43L, biotinylated] ?
# output no binding
